Tested on: HepG2
Test: Antiproliferative activity against human HepG2 cells assessed as inhibition of cell growth incubated for 72 hrs by MTT assay
Assay type: functional, cell-based
Conditions: HepG2, 72 h
The threshold is 10 µM. Values of IC50 beneath it are tagged Satisfied; values meeting or exceeding it are tagged Not satisfied.

# input Please let me know if COc1ccc2c(c1)CC[C@@H]1[C@@H]2CC[C@]2(C)C(OC(=O)C[Se]C#N)CC[C@@H]12 (some centres not stated) shows IC50 below 10 µM.
# output Not satisfied

# input Please let me know if C[C@]12CC[C@@H]3c4ccc(OCCC[Se]C#N)cc4CC[C@H]3[C@@H]1CCC2=O shows IC50 below 10 µM.
# output Not satisfied

# input Please let me know if C[C@]12CC[C@@H]3c4ccc(OCCCC[Se]C#N)cc4CC[C@H]3[C@@H]1CCC2=O shows IC50 below 10 µM.
# output Not satisfied

# input Please let me know if COc1cc2c(cc1O)CC[C@@H]1[C@@H]2CC[C@]2(C)[C@@H](O)CC[C@@H]12 [2-METHOXYESTRADIOL] shows IC50 below 10 µM.
# output Satisfied

# input Please let me know if C[C@]12CC[C@@H]3c4cc(NC(=O)CCCC[Se]C#N)c(O)cc4CC[C@H]3[C@@H]1CCC2=O shows IC50 below 10 µM.
# output Not satisfied

# input Please let me know if COc1ccc2c(c1)CC[C@@H]1[C@@H]2CC[C@]2(C)/C(=N/OC(=O)c3ccc(C[Se]C#N)cc3)CC[C@@H]12 shows IC50 below 10 µM.
# output Not satisfied

# input Please let me know if C[C@]12CC[C@@H]3c4cc(NC(=O)C[Se]C#N)c(O)cc4CC[C@H]3[C@@H]1CCC2=O shows IC50 below 10 µM.
# output Satisfied

====

System: HepG2
Experiment: Antiproliferative activity against human HepG2 cells assessed as inhibition of cell growth incubated for 72 hrs by MTT assay
Format: functional, cell-based
Details: HepG2, 72 h
measured endpoint: pIC50
Just the number, please; pIC50 means minus log10 of the concentration in mol/L.

# input // lookup pIC50 | system=HepG2 | key= C[C@]12CC[C@@H]3c4ccc(O)cc4CC[C@H]3[C@@H]1CCC2NC(=O)C[Se]C#N (some centres undefined)
# output 4.15

# input // lookup pIC50 | system=HepG2 | key= C[C@]12CC[C@@H]3c4ccc(O)cc4CC[C@H]3[C@@H]1CCC2NC(=O)c1ccc(C[Se]C#N)cc1 (some centres undefined)
# output 4.79

# input // lookup pIC50 | system=HepG2 | key= COc1ccc2c(c1)CC[C@@H]1[C@@H]2CC[C@]2(C)C(NC(=O)c3ccc(C[Se]C#N)cc3)CC[C@@H]12 (some centres undefined)
# output 4.86

====

System: HepG2
Test: Antiproliferative activity against human HepG2 cells assessed as inhibition of cell growth incubated for 72 hrs by MTT assay
Assay type: functional, cell-based
Conditions: HepG2, 72 h
Kindly supply the reported IC50 values for the records listed here.
Record the value in µM, omitting the unit from your answer.

# input Dear colleague, I am looking for the recorded IC50 of the following compound: C[C@]12CC[C@H](O)CC1=CC[C@@H]1[C@@H]2CC[C@]2(C)C(c3cccnc3)=CC[C@@H]12
# output 59.8

# input Dear colleague, I am looking for the recorded IC50 of the following compound: C[C@]12CC[C@@H]3c4cc(NC(=O)CCCCCCCCC[Se]C#N)c(O)cc4CC[C@H]3[C@@H]1CCC2=O
# output 31

# input Dear colleague, I am looking for the recorded IC50 of the following compound: C[C@]12CC[C@@H]3c4cc(NC(=O)CCCCCC[Se]C#N)c(O)cc4CC[C@H]3[C@@H]1CCC2=O
# output 10.1

# input Dear colleague, I am looking for the recorded IC50 of the following compound: COc1ccc2c(c1)CC[C@@H]1[C@@H]2CC[C@]2(C)C(OC(=O)c3ccc(C[Se]C#N)cc3)CC[C@@H]12 (some centres not stated)
# output 35.9

# input Dear colleague, I am looking for the recorded IC50 of the following compound: COc1ccc2c(c1)CC[C@@H]1[C@@H]2CC[C@]2(C)/C(=N/OC(=O)C[Se]C#N)CC[C@@H]12
# output 62.5

Hey, just so you know, these numbers are from ChEMBL document CHEMBL5150066.
